measured.target: T1, human DSG2 on cells (HeLa cells; polarized T84 cells) (human, UniProt Q14126 50-1118)
T1 sequence: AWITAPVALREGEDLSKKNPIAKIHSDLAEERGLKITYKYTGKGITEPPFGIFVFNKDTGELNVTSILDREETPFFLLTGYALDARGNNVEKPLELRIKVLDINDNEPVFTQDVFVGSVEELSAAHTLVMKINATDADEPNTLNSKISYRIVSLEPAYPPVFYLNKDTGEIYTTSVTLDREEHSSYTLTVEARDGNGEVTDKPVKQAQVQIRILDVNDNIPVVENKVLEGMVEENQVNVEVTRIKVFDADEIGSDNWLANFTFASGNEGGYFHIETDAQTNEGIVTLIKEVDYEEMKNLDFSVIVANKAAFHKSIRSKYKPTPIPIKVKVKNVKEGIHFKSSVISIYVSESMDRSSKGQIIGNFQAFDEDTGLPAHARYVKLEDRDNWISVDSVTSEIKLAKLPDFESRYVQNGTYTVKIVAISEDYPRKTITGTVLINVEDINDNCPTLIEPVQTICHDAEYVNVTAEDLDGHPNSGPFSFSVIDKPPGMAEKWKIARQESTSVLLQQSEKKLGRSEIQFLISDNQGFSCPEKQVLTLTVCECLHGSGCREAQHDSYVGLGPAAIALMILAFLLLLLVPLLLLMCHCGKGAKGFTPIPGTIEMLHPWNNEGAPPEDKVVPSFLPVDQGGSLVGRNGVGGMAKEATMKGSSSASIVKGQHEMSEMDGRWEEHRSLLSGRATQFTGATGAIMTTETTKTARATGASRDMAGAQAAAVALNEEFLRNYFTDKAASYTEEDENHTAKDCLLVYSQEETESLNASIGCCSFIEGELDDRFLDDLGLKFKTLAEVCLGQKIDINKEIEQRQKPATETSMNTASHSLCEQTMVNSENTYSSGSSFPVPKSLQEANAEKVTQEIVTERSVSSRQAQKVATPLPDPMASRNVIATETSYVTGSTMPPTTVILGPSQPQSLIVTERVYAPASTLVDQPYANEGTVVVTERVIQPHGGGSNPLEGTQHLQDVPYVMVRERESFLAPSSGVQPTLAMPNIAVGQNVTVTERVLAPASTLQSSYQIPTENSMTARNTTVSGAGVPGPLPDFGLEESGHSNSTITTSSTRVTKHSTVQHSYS
assay.comment: cell-based or functional assay
List of Inhibition of infection in the presence of dimeric knob (JO-1 = 100%) values.
# value in %; strip the unit string

dimeric Ad3 fiber knob mutant S190P (designed binder, also called 5190P [sic]) MKVSALKEKVSALKEKVSALKEKVSALKEKVSALKEGSGGGSGGGSGGGSNSIALKNNTLWTGPKPEANCIIEYGKQNPDSKLTLILVKNGGIVNGYVTLMGASDYVNTLFKNKNVPINVELYFDATGHILPDSSSLKTDLELKYKQTADFSARGFMPSTTAYPFVLPNAGTHNENYIFGQCYYKASDGALFPLEVTVMLNKRLPDSRTSYVMTFLWSLNAGLAPETTQATLITSPFTFSYIREDD ... 30.9
dimeric Ad3 fiber knob mutant V189G (designed binder) MKVSALKEKVSALKEKVSALKEKVSALKEKVSALKEGSGGGSGGGSGGGSNSIALKNNTLWTGPKPEANCIIEYGKQNPDSKLTLILVKNGGIVNGYVTLMGASDYVNTLFKNKNGSINVELYFDATGHILPDSSSLKTDLELKYKQTADFSARGFMPSTTAYPFVLPNAGTHNENYIFGQCYYKASDGALFPLEVTVMLNKRLPDSRTSYVMTFLWSLNAGLAPETTQATLITSPFTFSYIREDD ... 54
dimeric Ad3 fiber knob mutant D261N (designed binder) MKVSALKEKVSALKEKVSALKEKVSALKEKVSALKEGSGGGSGGGSGGGSNSIALKNNTLWTGPKPEANCIIEYGKQNPDSKLTLILVKNGGIVNGYVTLMGASDYVNTLFKNKNVSINVELYFDATGHILPDSSSLKTDLELKYKQTADFSARGFMPSTTAYPFVLPNAGTHNENYIFGQCYYKASNGALFPLEVTVMLNKRLPDSRTSYVMTFLWSLNAGLAPETTQATLITSPFTFSYIREDD ... 5.3

Input line: Which Inhibition of infection in the presence of dimeric knob (JO-1 = 100%) value is on record for dimeric Ad3 fiber knob mutant F265L (designed binder) MKVSALKEKVSALKEKVSALKEKVSALKEKVSALKEGSGGGSGGGSGGGSNSIALKNNTLWTGPKPEANCIIEYGKQNPDSKLTLILVKNGGIVNGYVTLMGASDYVNTLFKNKNVSINVELYFDATGHILPDSSSLKTDLELKYKQTADFSARGFMPSTTAYPFVLPNAGTHNENYIFGQCYYKASDGALLPLEVTVMLNKRLPDSRTSYVMTFLWSLNAGLAPETTQATLITSPFTFSYIREDD ?
Output line: 17.6

Input line: Which Inhibition of infection in the presence of dimeric knob (JO-1 = 100%) is reported for this binder? dimeric Ad3 fiber knob mutant E299V (designed binder) MKVSALKEKVSALKEKVSALKEKVSALKEKVSALKEGSGGGSGGGSGGGSNSIALKNNTLWTGPKPEANCIIEYGKQNPDSKLTLILVKNGGIVNGYVTLMGASDYVNTLFKNKNVSINVELYFDATGHILPDSSSLKTDLELKYKQTADFSARGFMPSTTAYPFVLPNAGTHNENYIFGQCYYKASDGALFPLEVTVMLNKRLPDSRTSYVMTFLWSLNAGLAPVTTQATLITSPFTFSYIREDD
Output line: 50.7

Input line: Value lookup for Inhibition of infection in the presence of dimeric knob (JO-1 = 100%); key = dimeric Ad3 fiber knob mutant L296R (designed binder) MKVSALKEKVSALKEKVSALKEKVSALKEKVSALKEGSGGGSGGGSGGGSNSIALKNNTLWTGPKPEANCIIEYGKQNPDSKLTLILVKNGGIVNGYVTLMGASDYVNTLFKNKNVSINVELYFDATGHILPDSSSLKTDLELKYKQTADFSARGFMPSTTAYPFVLPNAGTHNENYIFGQCYYKASDGALFPLEVTVMLNKRLPDSRTSYVMTFLWSLNAGRAPETTQATLITSPFTFSYIREDD
Output line: 5.1

Input line: Recorded Inhibition of infection in the presence of dimeric knob (JO-1 = 100%) for dimeric Ad3 fiber knob mutant N186D, D261N (designed binder, also called combination of N186D and D261N) MKVSALKEKVSALKEKVSALKEKVSALKEKVSALKEGSGGGSGGGSGGGSNSIALKNNTLWTGPKPEANCIIEYGKQNPDSKLTLILVKNGGIVNGYVTLMGASDYVNTLFKDKNVSINVELYFDATGHILPDSSSLKTDLELKYKQTADFSARGFMPSTTAYPFVLPNAGTHNENYIFGQCYYKASNGALFPLEVTVMLNKRLPDSRTSYVMTFLWSLNAGLAPETTQATLITSPFTFSYIREDD , please?
Output line: 5.2

Input line: Item under review: dimeric Ad3 fiber knob mutant N186D (designed binder) MKVSALKEKVSALKEKVSALKEKVSALKEKVSALKEGSGGGSGGGSGGGSNSIALKNNTLWTGPKPEANCIIEYGKQNPDSKLTLILVKNGGIVNGYVTLMGASDYVNTLFKDKNVSINVELYFDATGHILPDSSSLKTDLELKYKQTADFSARGFMPSTTAYPFVLPNAGTHNENYIFGQCYYKASDGALFPLEVTVMLNKRLPDSRTSYVMTFLWSLNAGLAPETTQATLITSPFTFSYIREDD . Reported Inhibition of infection in the presence of dimeric knob (JO-1 = 100%)?
Output line: 32.7

Input line: # query: Inhibition of infection in the presence of dimeric knob (JO-1 = 100%) of entry dimeric Ad3 fiber knob mutant D261N, L296R (designed binder, also called D261, L296R; combination of D261N and L296R) MKVSALKEKVSALKEKVSALKEKVSALKEKVSALKEGSGGGSGGGSGGGSNSIALKNNTLWTGPKPEANCIIEYGKQNPDSKLTLILVKNGGIVNGYVTLMGASDYVNTLFKNKNVSINVELYFDATGHILPDSSSLKTDLELKYKQTADFSARGFMPSTTAYPFVLPNAGTHNENYIFGQCYYKASNGALFPLEVTVMLNKRLPDSRTSYVMTFLWSLNAGRAPETTQATLITSPFTFSYIREDD
Output line: 1.5

Value source: patent US20150246949A1
